- Experimental Details: melting temperature; melt of duplexes
- Assay Conditions: sodium 0.0675 M; strand 1 µM
Could you please report measured Tm for the items listed next?
Write the value in °C as a bare number.

Sure, the documented Tm for CGACGTGCATCATGTGCTG+CAGCACATCTAGCACGTCG ((((((((...((((((((+))))))))...)))))))) is 47.3

Sure, the documented Tm for CGACGTGCCTGATGTGCTG+CAGCACATGATGCACGTCG ((((((((.(.((((((((+)))))))).).)))))))) is 49.4

Sure, the documented Tm for CGACGTGCCCTATGTGCTG+CAGCACATCTAGCACGTCG ((((((((...((((((((+))))))))...)))))))) is 48

Sure, the documented Tm for CGACGTGCTTGATGTGCTG+CAGCACATTATGCACGTCG ((((((((.(.((((((((+)))))))).).)))))))) is 51.9

Sure, the documented Tm for CGACGTGCGACATGTGCTG+CAGCACATCACGCACGTCG (((((((((..((((((((+))))))))..))))))))) is 52.7

Sure, the documented Tm for CGACGTGCGGGATGTGCTG+CAGCACATGTAGCACGTCG ((((((((...((((((((+))))))))...)))))))) is 53.7

Sure, the documented Tm for CGACGTGCGTGATGTGCTG+CAGCACATGTAGCACGTCG ((((((((...((((((((+))))))))...)))))))) is 53.3

Sure, the documented Tm for CGACGTGCTCCATGTGCTG+CAGCACATGCAGCACGTCG (((((((((.(((((((((+))))))))).))))))))) is 55.3

Sure, the documented Tm for CGACGTGCGTAATGTGCTG+CAGCACATCAGGCACGTCG ((((((((.(.((((((((+)))))))).).)))))))) is 51.5

Sure, the documented Tm for CGACGTGCCACATGTGCTG+CAGCACATACTGCACGTCG ((((((((...((((((((+))))))))...)))))))) is 47.2

Sure, the documented Tm for CGACGTGCTGCATGTGCTG+CAGCACATGCTGCACGTCG ((((((((.((((((((((+)))))))))).)))))))) is 61.2

====

Could you please report measured Tm for the items listed next?
- Experimental Details: melting temperature; melt of duplexes
- Assay Conditions: sodium 0.0675 M; strand 1 µM
Write the value in °C as a bare number.

Sure, the documented Tm for CGACGTGCCGGATGTGCTG+CAGCACATCAGGCACGTCG (((((((((.(((((((((+))))))))).))))))))) is 62.6

Sure, the documented Tm for CGACGTGCCACATGTGCTG+CAGCACATCCCGCACGTCG ((((((((...((((((((+))))))))...)))))))) is 46.3

Sure, the documented Tm for CGACGTGCTTGATGTGCTG+CAGCACATAAAGCACGTCG ((((((((((.((((((((+)))))))).)))))))))) is 57.7

Sure, the documented Tm for CGACGTGCGGTATGTGCTG+CAGCACATAGTGCACGTCG ((((((((..(((((((((+)))))))))..)))))))) is 53

====

Could you please report measured Tm for the items listed next?
- Experimental Details: melting temperature; melt of duplexes
- Assay Conditions: sodium 0.0675 M; strand 1 µM
Write the value in °C as a bare number.

Sure, the documented Tm for CGACGTGCGTCATGTGCTG+CAGCACATACTGCACGTCG ((((((((...((((((((+))))))))...)))))))) is 50.9

Sure, the documented Tm for CGACGTGCCCCATGTGCTG+CAGCACATTGCGCACGTCG ((((((((.(.((((((((+)))))))).).)))))))) is 48.2

Sure, the documented Tm for CGACGTGCCCGATGTGCTG+CAGCACATGATGCACGTCG ((((((((...((((((((+))))))))...)))))))) is 48.9

Sure, the documented Tm for CGACGTGCCCAATGTGCTG+CAGCACATAGTGCACGTCG ((((((((.(.((((((((+)))))))).).)))))))) is 46.2

Sure, the documented Tm for CGACGTGCGGAATGTGCTG+CAGCACATTGAGCACGTCG ((((((((..(((((((((+)))))))))..)))))))) is 56.2

Sure, the documented Tm for CGACGTGCGGTATGTGCTG+CAGCACATAACGCACGTCG (((((((((.(((((((((+))))))))).))))))))) is 61.4

Sure, the documented Tm for CGACGTGCCGTATGTGCTG+CAGCACATTTGGCACGTCG (((((((((..((((((((+))))))))..))))))))) is 55.2

Sure, the documented Tm for CGACGTGCCTCATGTGCTG+CAGCACATATTGCACGTCG ((((((((...((((((((+))))))))...)))))))) is 46.7

Sure, the documented Tm for CGACGTGCGACATGTGCTG+CAGCACATGCTGCACGTCG ((((((((..(((((((((+)))))))))..)))))))) is 54.7

Sure, the documented Tm for CGACGTGCACAATGTGCTG+CAGCACATTAAGCACGTCG ((((((((..(((((((((+)))))))))..)))))))) is 49

Sure, the documented Tm for CGACGTGCCATATGTGCTG+CAGCACATGTGGCACGTCG ((((((((((.((((((((+)))))))).)))))))))) is 60.3

Sure, the documented Tm for CGACGTGCATAATGTGCTG+CAGCACATCTTGCACGTCG (((((((((..((((((((+))))))))..))))))))) is 50.8

Sure, the documented Tm for CGACGTGCGATATGTGCTG+CAGCACATTGTGCACGTCG ((((((((...((((((((+))))))))...)))))))) is 47.6

Sure, the documented Tm for CGACGTGCATCATGTGCTG+CAGCACATTCAGCACGTCG ((((((((...((((((((+))))))))...)))))))) is 47.8

Sure, the documented Tm for CGACGTGCGCTATGTGCTG+CAGCACATTACGCACGTCG (((((((((..((((((((+))))))))..))))))))) is 53.4

Sure, the documented Tm for CGACGTGCGGGATGTGCTG+CAGCACATTGTGCACGTCG ((((((((...((((((((+))))))))...)))))))) is 49.4

Sure, the documented Tm for CGACGTGCCTCATGTGCTG+CAGCACATACGGCACGTCG (((((((((..((((((((+))))))))..))))))))) is 52.4

Sure, the documented Tm for CGACGTGCAGTATGTGCTG+CAGCACATACGGCACGTCG ((((((((.((((((((((+)))))))))).)))))))) is 58.3

Sure, the documented Tm for CGACGTGCTCGATGTGCTG+CAGCACATAATGCACGTCG ((((((((...((((((((+))))))))...)))))))) is 49.7

====

Could you please report measured Tm for the items listed next?
- Experimental Details: melting temperature; melt of duplexes
- Assay Conditions: sodium 0.0675 M; strand 1 µM
Just so you know, I need the unit written after the number.

Sure, the documented Tm for CGACGTGCGAAATGTGCTG+CAGCACATTATGCACGTCG ((((((((..(((((((((+)))))))))..)))))))) is 53.6 °C

Sure, the documented Tm for CGACGTGCTTAATGTGCTG+CAGCACATATAGCACGTCG (((((((((..((((((((+))))))))..))))))))) is 54.2 °C

Sure, the documented Tm for CGACGTGCAACATGTGCTG+CAGCACATCGCGCACGTCG ((((((((...((((((((+))))))))...)))))))) is 47.7 °C

====

- Experimental Details: melting temperature; UV melt of duplexes
- Assay Conditions: sodium 0.12 M; strand 2 µM
Endpoint Label: Tm (°C)
Write the value in °C as a bare number.

Sure, the documented Tm for TCAGTAGGCGTGACGCAGAGCTGGCGATGG+CCATCGCCAGCTCTGCGTCACGCCTACTGA ((((((((((((((((((((((((((((((+)))))))))))))))))))))))))))))) is 75.7

Sure, the documented Tm for TATGTATATTTTGTAATCAG+CTGATTACAAAATATACATA ((((((((((((((((((((+)))))))))))))))))))) is 47.7

Sure, the documented Tm for CAGTGAGACAGCAATGGTCG+CGACCATTGCTGTCTCACTG ((((((((((((((((((((+)))))))))))))))))))) is 63.5

Sure, the documented Tm for TACTTCCAGTGCTCAGCGTA+TACGCTGAGCACTGGAAGTA ((((((((((((((((((((+)))))))))))))))))))) is 64.4

These data points were gathered from the array DNA melting data of Ke et al..
